Each entry below carries its reported inhibition at 100 µM.
Target: hNaV1.5 (Homo sapiens)
Sequence (Q14524 whole entry): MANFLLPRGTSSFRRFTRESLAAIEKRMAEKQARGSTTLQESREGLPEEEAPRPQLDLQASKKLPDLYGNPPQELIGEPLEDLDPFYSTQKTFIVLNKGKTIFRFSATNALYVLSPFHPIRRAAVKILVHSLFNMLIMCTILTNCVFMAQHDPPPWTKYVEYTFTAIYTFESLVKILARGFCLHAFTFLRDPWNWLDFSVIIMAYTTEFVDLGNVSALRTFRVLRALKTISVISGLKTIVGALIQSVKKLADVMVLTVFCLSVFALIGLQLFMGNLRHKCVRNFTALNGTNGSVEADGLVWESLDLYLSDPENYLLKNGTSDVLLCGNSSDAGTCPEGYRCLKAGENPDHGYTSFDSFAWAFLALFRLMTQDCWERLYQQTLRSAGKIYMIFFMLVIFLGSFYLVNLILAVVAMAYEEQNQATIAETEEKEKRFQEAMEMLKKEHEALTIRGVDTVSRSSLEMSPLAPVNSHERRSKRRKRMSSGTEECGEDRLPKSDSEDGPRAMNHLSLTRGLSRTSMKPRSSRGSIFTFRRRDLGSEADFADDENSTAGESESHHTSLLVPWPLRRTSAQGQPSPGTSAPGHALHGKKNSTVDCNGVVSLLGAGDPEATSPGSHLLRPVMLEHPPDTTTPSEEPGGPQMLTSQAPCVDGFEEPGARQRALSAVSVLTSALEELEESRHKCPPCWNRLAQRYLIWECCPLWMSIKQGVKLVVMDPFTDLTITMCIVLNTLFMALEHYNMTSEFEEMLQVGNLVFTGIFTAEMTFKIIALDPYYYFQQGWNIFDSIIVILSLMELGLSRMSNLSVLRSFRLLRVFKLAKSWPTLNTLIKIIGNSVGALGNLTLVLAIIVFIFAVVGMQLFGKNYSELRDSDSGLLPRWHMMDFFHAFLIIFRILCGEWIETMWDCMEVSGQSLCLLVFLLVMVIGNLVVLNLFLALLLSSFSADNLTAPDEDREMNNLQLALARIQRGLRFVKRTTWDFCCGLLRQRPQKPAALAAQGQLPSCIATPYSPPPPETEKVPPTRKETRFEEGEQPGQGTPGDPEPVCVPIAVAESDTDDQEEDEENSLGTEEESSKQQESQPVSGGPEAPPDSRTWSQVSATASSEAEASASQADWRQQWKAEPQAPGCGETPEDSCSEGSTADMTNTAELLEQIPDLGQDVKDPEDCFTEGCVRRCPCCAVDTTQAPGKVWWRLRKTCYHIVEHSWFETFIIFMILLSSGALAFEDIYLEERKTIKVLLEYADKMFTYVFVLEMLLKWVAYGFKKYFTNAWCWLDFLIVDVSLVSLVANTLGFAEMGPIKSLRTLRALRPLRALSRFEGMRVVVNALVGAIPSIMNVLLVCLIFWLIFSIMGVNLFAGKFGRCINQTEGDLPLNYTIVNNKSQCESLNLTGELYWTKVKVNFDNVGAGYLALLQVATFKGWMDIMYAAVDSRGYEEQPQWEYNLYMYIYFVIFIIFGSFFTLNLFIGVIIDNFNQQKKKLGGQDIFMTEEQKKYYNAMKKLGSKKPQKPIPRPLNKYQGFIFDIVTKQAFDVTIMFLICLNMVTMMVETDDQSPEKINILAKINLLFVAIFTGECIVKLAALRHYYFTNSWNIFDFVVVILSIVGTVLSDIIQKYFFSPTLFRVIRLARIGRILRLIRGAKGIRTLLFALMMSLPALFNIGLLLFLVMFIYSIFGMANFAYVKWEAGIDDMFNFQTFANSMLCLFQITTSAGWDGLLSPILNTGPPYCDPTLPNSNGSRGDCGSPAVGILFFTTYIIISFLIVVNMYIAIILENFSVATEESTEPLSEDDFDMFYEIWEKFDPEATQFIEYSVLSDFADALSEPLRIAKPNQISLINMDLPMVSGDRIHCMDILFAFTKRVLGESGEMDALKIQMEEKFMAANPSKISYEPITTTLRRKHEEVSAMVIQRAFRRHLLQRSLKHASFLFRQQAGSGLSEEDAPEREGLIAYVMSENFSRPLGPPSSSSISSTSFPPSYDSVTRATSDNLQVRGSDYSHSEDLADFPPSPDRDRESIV
Assay: Two-electrode voltage-clamp on Xenopus laevis oocytes expressing NaV1.5
Settings: read-out: Maximum % inhibition NaV1.5
Where a SMILES comes first, the peptide text is derived from it. Bridges are numbered along the chain shown (N, C = ends).
PARAMETER_MEASURED: inhibition at 100 µM (%)

| MOLECULE | READOUT_NUMBER |
| --- | --- |
| C[C@@H]1NC(=O)[C@H](Cc2ccc(O)cc2)NC(=O)[C@H](CCCNC(=N)N)NC(=O)[C@H](CCCNC(=N)N)NC(=O)[C@@H](N)CSSC[C@@H](C(N)=O)NC(=O)[C@H](CCCNC(=N)N)NC(=O)[C@H](CC(N)=O)NC(=O)[C@H](Cc2c[nH]c3ccccc23)NC(=O)[C@H](CCCNC(=N)N)NC1=O [PnCS1[W4Y], CRRYARWNRC ^*] (H-CRRYARWNRC-NH2; disulfide 1-10) | 43 |
| C[C@@H]1NC(=O)[C@H](Cc2c[nH]c3ccccc23)NC(=O)[C@H](CCCNC(=N)N)NC(=O)[C@H](CCCNC(=N)N)NC(=O)[C@@H](N)CSSC[C@@H](C(N)=O)NC(=O)[C@H](CCCNC(=N)N)NC(=O)[C@H](CCC(=O)O)NC(=O)[C@H](Cc2c[nH]c3ccccc23)NC(=O)[C@H](CCCNC(=N)N)NC1=O [PnCS1[N8E], CRRWARWERC ^*] (H-CRRWARWERC-NH2; disulfide 1-10) | 44 |
| C[C@@H]1NC(=O)[C@H](C)NC(=O)[C@H](CCCNC(=N)N)NC(=O)[C@H](CCCNC(=N)N)NC(=O)[C@@H](N)CSSC[C@@H](C(N)=O)NC(=O)[C@H](CCCNC(=N)N)NC(=O)[C@H](CC(N)=O)NC(=O)[C@H](Cc2c[nH]c3ccccc23)NC(=O)[C@H](CCCNC(=N)N)NC1=O [PnCS1[W4A], CRRAARWNRC ^*] (H-CRRAARWNRC-NH2; disulfide 1-10) | 82 |
| C[C@@H]1NC(=O)[C@H](Cc2c[nH]c3ccccc23)NC(=O)[C@H](CCCCN)NC(=O)[C@H](CCCNC(=N)N)NC(=O)[C@@H](N)CSSC[C@@H](C(N)=O)NC(=O)[C@H](CCCNC(=N)N)NC(=O)[C@H](CC(N)=O)NC(=O)[C@H](Cc2c[nH]c3ccccc23)NC(=O)[C@H](CCCNC(=N)N)NC1=O [PnCS1[R3K], CRKWARWNRC ^*] (H-CRKWARWNRC-NH2; disulfide 1-10) | 94 |
| C[C@@H]1NC(=O)[C@H](Cc2c[nH]c3ccccc23)NC(=O)[C@H](CCCNC(=N)N)NC(=O)[C@H](C)NC(=O)[C@H](Cc2c[nH]c3ccccc23)NC(=O)[C@H](CCCNC(=N)N)NC(=O)[C@H](CCCNC(=N)N)NC(=O)[C@@H](N)CSSC[C@@H](C(N)=O)NC(=O)[C@H](CCCNC(=N)N)NC1=O [PnCS1[N8A], CRRWARWARC ^*] (H-CRRWARWARC-NH2; disulfide 1-10) | 92 |
| C[C@@H]1NC(=O)[C@H](CCCNC(=N)N)NC(=O)[C@H](C)NC(=O)[C@H](Cc2c[nH]c3ccccc23)NC(=O)[C@H](CCCNC(=N)N)NC(=O)[C@H](CCCNC(=N)N)NC(=O)[C@@H](N)CSSC[C@@H](C(N)=O)NC(=O)[C@H](CCCNC(=N)N)NC(=O)[C@H](CC(N)=O)NC1=O [PnCS1[W7A], CRRWARANRC ^*] (H-CRRWARANRC-NH2; disulfide 1-10) | 78 |

* * *

The listing below reports pIC50 for compounds tested on rNaV1.4 (Rattus norvegicus).
Sequence (P15390 whole entry): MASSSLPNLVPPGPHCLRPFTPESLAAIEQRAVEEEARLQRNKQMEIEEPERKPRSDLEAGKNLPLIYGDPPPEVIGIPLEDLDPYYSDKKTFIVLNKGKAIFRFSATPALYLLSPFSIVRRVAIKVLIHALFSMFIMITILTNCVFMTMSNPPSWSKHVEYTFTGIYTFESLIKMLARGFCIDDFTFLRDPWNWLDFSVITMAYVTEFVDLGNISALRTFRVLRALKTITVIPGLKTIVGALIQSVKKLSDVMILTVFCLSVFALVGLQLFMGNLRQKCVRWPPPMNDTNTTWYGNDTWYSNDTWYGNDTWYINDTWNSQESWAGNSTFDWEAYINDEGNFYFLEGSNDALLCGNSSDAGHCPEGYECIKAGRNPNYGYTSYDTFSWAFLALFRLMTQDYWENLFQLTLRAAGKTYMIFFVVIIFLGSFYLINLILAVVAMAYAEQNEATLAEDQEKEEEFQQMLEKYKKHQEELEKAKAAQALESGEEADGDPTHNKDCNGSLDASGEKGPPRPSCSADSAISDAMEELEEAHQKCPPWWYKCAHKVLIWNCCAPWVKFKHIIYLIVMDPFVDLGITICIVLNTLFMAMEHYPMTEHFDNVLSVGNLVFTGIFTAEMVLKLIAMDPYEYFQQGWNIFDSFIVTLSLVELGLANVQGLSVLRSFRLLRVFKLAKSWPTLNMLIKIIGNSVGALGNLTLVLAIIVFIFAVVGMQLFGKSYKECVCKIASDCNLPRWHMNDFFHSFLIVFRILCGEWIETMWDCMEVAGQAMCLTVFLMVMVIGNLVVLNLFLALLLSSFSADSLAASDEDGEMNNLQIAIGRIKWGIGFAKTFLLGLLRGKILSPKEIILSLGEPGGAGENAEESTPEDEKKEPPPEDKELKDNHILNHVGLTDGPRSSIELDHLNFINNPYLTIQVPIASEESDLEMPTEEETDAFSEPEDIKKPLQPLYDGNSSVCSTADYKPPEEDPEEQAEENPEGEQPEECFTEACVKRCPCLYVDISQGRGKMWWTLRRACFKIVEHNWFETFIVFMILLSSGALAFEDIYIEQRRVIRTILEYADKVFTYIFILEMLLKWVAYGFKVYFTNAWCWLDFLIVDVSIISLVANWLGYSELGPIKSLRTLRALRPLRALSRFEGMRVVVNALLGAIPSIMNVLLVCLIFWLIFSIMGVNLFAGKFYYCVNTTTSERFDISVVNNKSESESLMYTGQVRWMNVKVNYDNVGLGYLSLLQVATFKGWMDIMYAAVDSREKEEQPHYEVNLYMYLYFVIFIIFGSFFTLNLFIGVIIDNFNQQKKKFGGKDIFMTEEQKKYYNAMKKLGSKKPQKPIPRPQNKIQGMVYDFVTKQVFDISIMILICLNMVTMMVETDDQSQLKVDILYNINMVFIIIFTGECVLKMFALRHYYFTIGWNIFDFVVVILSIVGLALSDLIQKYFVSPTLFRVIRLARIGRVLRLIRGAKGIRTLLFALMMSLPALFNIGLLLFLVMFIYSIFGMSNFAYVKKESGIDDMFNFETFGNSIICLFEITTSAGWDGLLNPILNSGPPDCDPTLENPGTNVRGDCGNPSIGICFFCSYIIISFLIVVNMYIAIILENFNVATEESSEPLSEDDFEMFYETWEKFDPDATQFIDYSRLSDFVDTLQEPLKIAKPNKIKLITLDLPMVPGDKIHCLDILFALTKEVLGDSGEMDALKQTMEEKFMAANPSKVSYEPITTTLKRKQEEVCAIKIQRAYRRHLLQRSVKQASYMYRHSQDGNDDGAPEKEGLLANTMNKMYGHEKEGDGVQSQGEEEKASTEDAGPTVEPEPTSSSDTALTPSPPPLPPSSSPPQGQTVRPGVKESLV
Sequence (Q00954 19-218, further chain): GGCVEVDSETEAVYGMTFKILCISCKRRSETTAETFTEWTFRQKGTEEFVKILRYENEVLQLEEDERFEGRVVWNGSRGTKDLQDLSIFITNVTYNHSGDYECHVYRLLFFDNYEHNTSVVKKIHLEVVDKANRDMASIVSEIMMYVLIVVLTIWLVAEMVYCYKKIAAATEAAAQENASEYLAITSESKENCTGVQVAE
pIC50: −log10 of the molar value. Where a SMILES comes first, the peptide text is derived from it. Bridges are numbered along the chain shown (N, C = ends).
PARAMETER_MEASURED: pIC50

| COMPOUND | CENSORING_SIGN | READOUT_NUMBER |
| --- | --- | --- |
| C[C@@H]1NC(=O)[C@H](Cc2ccc(O)cc2)NC(=O)[C@H](CCCNC(=N)N)NC(=O)[C@H](CCCNC(=N)N)NC(=O)[C@@H](N)CSSC[C@@H](C(N)=O)NC(=O)[C@H](CCCNC(=N)N)NC(=O)[C@H](CC(N)=O)NC(=O)[C@H](Cc2c[nH]c3ccccc23)NC(=O)[C@H](CCCNC(=N)N)NC1=O [PnCS1[W4Y], CRRYARWNRC ^*] (H-CRRYARWNRC-NH2; disulfide 1-10) | < | 4.00 |
| C[C@@H]1NC(=O)[C@H](Cc2c[nH]c3ccccc23)NC(=O)[C@H](CCCNC(=N)N)NC(=O)[C@H](CCCNC(=N)N)NC(=O)[C@@H](N)CSSC[C@@H](C(N)=O)NC(=O)[C@H](CCCNC(=N)N)NC(=O)[C@H](CC(N)=O)NC(=O)[C@H](Cc2c[nH]c3ccccc23)NC(=O)[C@H](CCCCN)NC1=O [PnCS1[R6K], CRRWAKWNRC ^*] (H-CRRWAKWNRC-NH2; disulfide 1-10) | = | 6.22 |
| C[C@@H]1NC(=O)[C@H](Cc2c[nH]c3ccccc23)NC(=O)[C@H](C)NC(=O)[C@H](CCCNC(=N)N)NC(=O)[C@@H](N)CSSC[C@@H](C(N)=O)NC(=O)[C@H](CCCNC(=N)N)NC(=O)[C@H](CC(N)=O)NC(=O)[C@H](Cc2c[nH]c3ccccc23)NC(=O)[C@H](CCCNC(=N)N)NC1=O [PnCS1[R3A], CRAWARWNRC ^*] (H-CRAWARWNRC-NH2; disulfide 1-10) | = | 5.80 |
| C[C@@H]1NC(=O)[C@H](CCC(=O)O)NC(=O)[C@H](CCCNC(=N)N)NC(=O)[C@H](CCCNC(=N)N)NC(=O)[C@@H](N)CSSC[C@@H](C(N)=O)NC(=O)[C@H](CCCNC(=N)N)NC(=O)[C@H](CC(N)=O)NC(=O)[C@H](Cc2c[nH]c3ccccc23)NC(=O)[C@H](CCCNC(=N)N)NC1=O [PnCS1[W4E], CRREARWNRC ^*] (H-CRREARWNRC-NH2; disulfide 1-10) | = | 4.89 |
| C[C@@H]1NC(=O)[C@H](C)NC(=O)[C@H](Cc2c[nH]c3ccccc23)NC(=O)[C@H](CCCNC(=N)N)NC(=O)[C@H](CCCNC(=N)N)NC(=O)[C@@H](N)CSSC[C@@H](C(N)=O)NC(=O)[C@H](CCCNC(=N)N)NC(=O)[C@H](CC(N)=O)NC(=O)[C@H](Cc2c[nH]c3ccccc23)NC1=O [PnCS1[R6A], CRRWAAWNRC ^*] (H-CRRWAAWNRC-NH2; disulfide 1-10) | = | 6.30 |
| C[C@@H]1NC(=O)[C@H](Cc2c[nH]c3ccccc23)NC(=O)[C@H](CCCNC(=N)N)NC(=O)[C@H](C)NC(=O)[C@H](Cc2c[nH]c3ccccc23)NC(=O)[C@H](CCCNC(=N)N)NC(=O)[C@H](CCCNC(=N)N)NC(=O)[C@@H](N)CSSC[C@@H](C(N)=O)NC(=O)[C@H](CCCNC(=N)N)NC1=O [PnCS1[N8A], CRRWARWARC ^*] (H-CRRWARWARC-NH2; disulfide 1-10) | = | 6.05 |

* * *

Biological target: hNaV1.5 (Homo sapiens)
Assay: Two-electrode voltage-clamp on Xenopus laevis oocytes expressing NaV1.5
Settings: read-out: Maximum % inhibition NaV1.5
Where a SMILES comes first, the peptide text is derived from it. Bridges are numbered along the chain shown (N, C = ends).
PARAMETER_MEASURED: inhibition at 100 µM (%)

| COMPOUND | PARAMETER_MEASURED | READOUT_NUMBER |
| --- | --- | --- |
| C[C@@H]1NC(=O)[C@H](Cc2c[nH]c3ccccc23)NC(=O)[C@H](CCCNC(=N)N)NC(=O)[C@H](CCCNC(=N)N)NC(=O)[C@@H](N)CSSC[C@@H](C(N)=O)NC(=O)[C@H](CCCNC(=N)N)NC(=O)[C@H](CC(N)=O)NC(=O)[C@H](Cc2c[nH]c3ccccc23)NC(=O)[C@H](CCCCN)NC1=O [PnCS1[R6K], CRRWAKWNRC ^*] (H-CRRWAKWNRC-NH2; disulfide 1-10) | inhibition at 100 µM | 89 |
| C[C@@H]1NC(=O)[C@H](Cc2c[nH]c3ccccc23)NC(=O)[C@H](CCCNC(=N)N)NC(=O)[C@H](CCCNC(=N)N)NC(=O)[C@@H](N)CSSC[C@@H](C(N)=O)NC(=O)[C@H](CCCNC(=N)N)NC(=O)[C@H](CC(N)=O)NC(=O)[C@H](Cc2c[nH]c3ccccc23)NC(=O)[C@H](CCCNC(=N)N)NC1=O [PnCS1, CRRWARWNRC ^*] (H-CRRWARWNRC-NH2; disulfide 1-10) | inhibition at 100 µM | 94 |
